- targetUnderTest: TANK-2 enzyme (Homo sapiens)
- Construct: made in house
- Sequence (Q9H2K2 1-1166): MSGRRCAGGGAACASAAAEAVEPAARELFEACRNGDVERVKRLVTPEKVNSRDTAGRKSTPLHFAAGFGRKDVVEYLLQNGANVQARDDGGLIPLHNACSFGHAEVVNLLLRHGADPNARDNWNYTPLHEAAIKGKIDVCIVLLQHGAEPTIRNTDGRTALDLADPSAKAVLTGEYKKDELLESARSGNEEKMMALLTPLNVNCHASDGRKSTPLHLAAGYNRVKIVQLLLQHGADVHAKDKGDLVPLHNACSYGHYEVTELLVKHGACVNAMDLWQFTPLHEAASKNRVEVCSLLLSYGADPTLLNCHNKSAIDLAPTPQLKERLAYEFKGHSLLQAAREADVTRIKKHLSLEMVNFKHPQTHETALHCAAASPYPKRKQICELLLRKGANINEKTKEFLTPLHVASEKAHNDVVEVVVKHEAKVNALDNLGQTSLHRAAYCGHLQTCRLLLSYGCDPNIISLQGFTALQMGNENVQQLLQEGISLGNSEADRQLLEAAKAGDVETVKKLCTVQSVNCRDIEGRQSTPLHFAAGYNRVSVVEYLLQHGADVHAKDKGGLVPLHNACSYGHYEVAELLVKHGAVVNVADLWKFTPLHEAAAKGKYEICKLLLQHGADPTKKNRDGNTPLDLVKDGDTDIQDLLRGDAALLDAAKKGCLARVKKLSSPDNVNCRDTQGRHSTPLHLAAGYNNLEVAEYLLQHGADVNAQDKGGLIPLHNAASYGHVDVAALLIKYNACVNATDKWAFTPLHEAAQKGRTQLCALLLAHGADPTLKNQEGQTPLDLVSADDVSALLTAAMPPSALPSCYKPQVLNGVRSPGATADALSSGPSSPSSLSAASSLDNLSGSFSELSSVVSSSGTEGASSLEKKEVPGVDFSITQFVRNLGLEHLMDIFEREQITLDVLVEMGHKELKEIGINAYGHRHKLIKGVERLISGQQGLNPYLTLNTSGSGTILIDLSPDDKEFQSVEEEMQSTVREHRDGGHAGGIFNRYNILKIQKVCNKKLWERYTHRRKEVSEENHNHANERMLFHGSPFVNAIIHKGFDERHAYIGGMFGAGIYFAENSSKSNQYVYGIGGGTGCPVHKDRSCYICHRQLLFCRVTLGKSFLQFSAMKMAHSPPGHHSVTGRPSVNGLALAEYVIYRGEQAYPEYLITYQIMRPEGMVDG
- experimentalDetails: In vitro Scintillation Proximity Assay (SPA) for TANK-2 inhibitory activity
- Type: biochemical
- statedConditions: read-out: in vitro SPA assay TANK-2 pIC50 (converted)
- Description: Compounds of the present invention were tested in an in vitro assay based on SPA technology with Ni Flash plates (96 or 384 well). […] A stock solution of 100 nM [3H]-NAD^+/NAD (0.1 mCi/ml, supplier: Perkin Elmer) and 0.25 μM NAD (Sigma) was made in assay buffer (60 mM Tris/HCl, pH 7.4; 0.9 mM DTT; 6 mM MgCl2). […] Values were expressed as counts per minute (cpm). […] For each sample, the amount of cpm was expressed as a percentage of the mean cpm value of the controls. […]
Quick reference: IC50 of the listed items.
readout: IC50

compound | reportedValue
CCc1cc2ccc(C(C)(C#N)Cc3ccnc(F)c3)cc2[nH]c1=O (centres unmarked) [Compound 330] | 398 nM
CCc1cc2ccc(C(C)(C#N)Cc3cccc(-c4cnn(C)c4)c3)cc2[nH]c1=O (centres unmarked) [Compound 17] | 50.1 nM
CCc1cc2ccc(C(C)(C#N)Cc3cccc(C4(N)CC4)c3)cc2[nH]c1=O (centres unmarked) [Compound 180] | 158 nM
CCc1cc2ccc(C(C)(C#N)Cc3cc(OCCOC)nc(Cl)n3)cc2[nH]c1=O (centres unmarked) [Compound 367] | 158 nM
CCc1cc2ccc(C(C)(C#N)Cc3cccc(CN)n3)cc2[nH]c1=O (centres unmarked) [Compound 221] | 251 nM
CCc1cc2ccc(C(C)(C#N)Cc3cc(F)cc(F)c3)cc2[nH]c1=O (centres unmarked) [Compound 402] | 126 nM
Cc1cc2ccc([C@@](C)(C#N)[C@@H]3CCc4cc(C#N)ccc43)cc2[nH]c1=O [Compound 245] | 1000 nM
CCc1cc2ccc(C(C#N)(CC)Cc3cccc(F)c3)cc2[nH]c1=O (centres unmarked) [Compound 270] | 316 nM
Cc1cc2ccc(C(C)(C#N)Cc3ccc(Cl)s3)cc2[nH]c1=O (centres unmarked) [Compound 72] | 251 nM
CCOc1cc(C#N)nc(CC(C)(C#N)c2ccc3cc(CC)c(=O)[nH]c3c2)n1 (centres unmarked) [Compound 315] | 100 nM
CCc1cc2ccc(C(C)(C#N)CNCc3cccc(C#N)c3)cc2[nH]c1=O (centres unmarked) [Compound 301] | 79.4 nM
CCc1cc2ccc(C(C)(C#N)Cc3ccc(F)c(C#N)c3)cc2[nH]c1=O (centres unmarked) [Compound 267] | 251 nM
Cc1cc2ccc([C@](C)(C#N)[C@@H]3CCc4cc(Br)ccc43)cc2[nH]c1=O [Compound 242] | 7940 nM
Cc1cc2ccc([C@@](C)(C#N)[C@@H]3CCCc4ccccc43)cc2[nH]c1=O [Compound 382] | 2000 nM
CCc1cc2ccc(C(C)(C#N)CN3CCC(c4ccccc4)CC3)cc2[nH]c1=O (centres unmarked) [Compound 375] | 398 nM
CCc1cc2ccc(C(C)(C#N)Cc3cccc(C#C[Si](C)(C)C)n3)cc2[nH]c1=O (centres unmarked) [Compound 210] | 3980 nM
CCc1cc2ccc(C(C)(C#N)Cc3cc(N(C)C)nc(N(C)C)n3)cc2[nH]c1=O (centres unmarked) [Compound 320] | 200 nM
